Tested on: OVCAR-5 ovarian
PROCEDURE_SUMMARY: NCI-60 one-dose screen, 48 h (100 = growth as untreated, 0 = no growth, -100 = all killed)
ASSAY_CONTEXT: 10 µM unless noted
About 83,000 compounds went through this panel and 20% of them were active in at least one assay; those are over-represented in the sample as a whole.
MEASURED_ATTRIBUTE: growth (%)

compound=CCCCCCCCCCCCCC[P+](CCCCCC)(CCCCCC)CCCCCC unit_annotation=% result=-7.29
compound=O=[N+]([O-])/C=C\c1ccc(Cl)c(Cl)c1 unit_annotation=% result=106
compound="CCCCCCCCCCCCCCCCCC1OC[C@@H](COC(=O)O[C@@H](C(=O)O[C@H]2C[C@@]3(O)[C@@H](OC(=O)c4ccccc4)[C@@H]4[C@]5(OC(C)=O)CO[C@@H]5C[C@H](O)[C@@]4(C)C(=O)[C@H](OC(C)=O)C(=C2C)C3(C)C)[C@@H](NC(=O)c2ccccc2)c2ccccc2)O1 (some centres undefined)" unit_annotation=% result=53.9
compound=Nc1ccc(Cl)cc1 unit_annotation=% result=100
